Target: DNMT1 (Homo sapiens)
Sequence (P26358 whole entry): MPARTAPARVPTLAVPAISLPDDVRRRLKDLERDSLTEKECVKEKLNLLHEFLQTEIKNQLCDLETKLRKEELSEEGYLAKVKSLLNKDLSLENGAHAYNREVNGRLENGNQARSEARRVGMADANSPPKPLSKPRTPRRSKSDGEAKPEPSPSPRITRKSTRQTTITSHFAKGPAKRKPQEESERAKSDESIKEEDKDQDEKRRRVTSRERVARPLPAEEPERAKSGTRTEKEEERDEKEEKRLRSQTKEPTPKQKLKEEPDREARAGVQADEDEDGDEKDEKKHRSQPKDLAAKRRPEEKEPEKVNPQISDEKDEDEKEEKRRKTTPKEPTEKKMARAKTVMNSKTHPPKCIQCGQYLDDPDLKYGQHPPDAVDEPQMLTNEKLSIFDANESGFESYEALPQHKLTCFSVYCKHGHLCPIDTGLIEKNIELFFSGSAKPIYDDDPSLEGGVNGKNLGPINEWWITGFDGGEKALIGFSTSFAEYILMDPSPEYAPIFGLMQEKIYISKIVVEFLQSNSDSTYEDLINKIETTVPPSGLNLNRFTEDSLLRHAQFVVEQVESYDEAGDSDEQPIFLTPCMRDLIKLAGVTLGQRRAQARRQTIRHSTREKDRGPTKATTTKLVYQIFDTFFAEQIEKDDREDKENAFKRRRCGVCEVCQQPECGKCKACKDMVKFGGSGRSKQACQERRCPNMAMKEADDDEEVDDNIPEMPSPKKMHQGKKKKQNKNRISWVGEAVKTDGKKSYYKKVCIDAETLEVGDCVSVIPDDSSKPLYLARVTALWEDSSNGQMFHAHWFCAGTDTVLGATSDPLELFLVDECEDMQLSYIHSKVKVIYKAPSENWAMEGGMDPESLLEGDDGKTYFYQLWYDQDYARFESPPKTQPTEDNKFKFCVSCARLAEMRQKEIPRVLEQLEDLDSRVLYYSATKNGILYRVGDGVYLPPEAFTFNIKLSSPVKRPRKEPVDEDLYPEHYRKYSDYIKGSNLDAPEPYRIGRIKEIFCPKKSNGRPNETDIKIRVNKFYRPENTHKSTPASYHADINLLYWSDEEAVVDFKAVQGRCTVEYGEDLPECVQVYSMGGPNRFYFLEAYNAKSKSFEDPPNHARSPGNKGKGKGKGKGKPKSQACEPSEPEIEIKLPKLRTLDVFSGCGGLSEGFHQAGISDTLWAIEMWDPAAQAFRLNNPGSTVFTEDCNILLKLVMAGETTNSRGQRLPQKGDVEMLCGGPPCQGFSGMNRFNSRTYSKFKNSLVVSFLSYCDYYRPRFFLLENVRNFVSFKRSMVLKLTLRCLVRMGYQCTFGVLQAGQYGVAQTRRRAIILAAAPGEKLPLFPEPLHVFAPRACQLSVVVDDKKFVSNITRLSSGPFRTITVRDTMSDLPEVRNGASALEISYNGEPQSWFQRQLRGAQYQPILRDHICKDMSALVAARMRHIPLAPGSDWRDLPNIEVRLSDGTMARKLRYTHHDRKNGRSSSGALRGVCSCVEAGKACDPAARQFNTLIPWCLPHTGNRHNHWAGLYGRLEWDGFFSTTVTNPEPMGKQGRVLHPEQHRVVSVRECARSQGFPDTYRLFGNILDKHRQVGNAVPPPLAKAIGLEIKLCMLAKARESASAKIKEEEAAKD
Test: DNMT1 enzyme activity assay (TR-FRET, EPIgeneous methyltransferase assay)
Format: biochemical
List of IC50 values.
Quantity Kind: IC50

1) COc1cc2c(NC3CC4(CCNCC4)C3)cc(-c3ccc(C)o3)nc2cc1OCC1CCNCC1
0.1 to 0.5 µM
2) COc1cc2c(NC3CCN(C)CC3)cc(-c3cccnc3)nc2cc1OCCCN1CCCC1
1 to 10 µM
3) COc1cc2c(NC3CCN(C)CC3)cc(-c3ccc(-c4ccccc4)o3)nc2cc1OCCCN1CCCC1
1 to 10 µM
4) CCc1ccc(-c2cc(NC3CCC34CCN(C3CC3)CC4)c3cc(OC)c(OCCCN4CCCC4)cc3n2)o1 (centres unmarked)
0.1 to 0.5 µM
5) Cc1ccc(-c2cc(NC3CCN(C)CC3)c3cc(OCC(F)(F)F)c(OCCCN4CCCC4)cc3n2)o1
0.5 to 1 µM
6) COc1cc2c(NCC3CCN(C)CC3)cc(-c3ccc(C)o3)nc2cc1OCC1CCNCC1
0.1 to 0.5 µM
7) COc1cc2c(NC3CCN(C)CC3)cc(-c3cc4ccccc4o3)nc2cc1OCCCN1CCCC1
1 to 10 µM
8) COc1cc2c(NC3CCN(C)CC3)cc(-c3ccc(CN(C)C)o3)nc2cc1OCCCN1CCCC1
1 to 10 µM

---

Molecular target: DNMT1 (Homo sapiens)
Assay: DNMT1 enzyme activity assay (TR-FRET, EPIgeneous methyltransferase assay)
Assay type: biochemical
pIC50: −log10 of the molar value. Structures can show the parent of a compound that is named as a salt.
List of pIC50 values.
Quantity Kind: pIC50

1) COc1cc2c(NC3CCN(C)C(=O)C3)cc(-c3ccc(C)[nH]3)nc2cc1OCC1CCNCC1 (stereo not shown)
6.00 to 6.30
2) CCc1ccc(-c2cc(NC3CC4(CCN(C)CC4)C3)c3cc(OC)c(OCCCN4CCCC4)cc3n2)o1
6.30 to 7.00
3) COc1cc2c(NC3CCN(C)CC3)cc(C3=CCCCC3)nc2cc1OCCCN1CCCC1
6.30 to 7.00
4) CCc1ccc(-c2cc(NC3CCN(C)CC3)c3cc(OC)c(OCC4CCNCC4)cc3n2)o1
6.00 to 6.30
5) COc1cc2c(NC3CCN(C)C(=O)C3)cc(-c3ccc(C)[nH]3)nc2cc1OCC1CCN(C)CC1 (stereo not shown)
6.00 to 6.30
6) COc1cc2c(NC3CCN(C4CC4)CC3)cc(-c3ccc(C)o3)nc2cc1OCCCN1CCCC1
6.30 to 7.00
7) COc1cc2c(NC3CCC34CCNCC4)cc(-c3ccc(C)o3)nc2cc1OCCCN1CCCC1 (stereo not shown)
6.30 to 7.00
8) COc1cc2c(NC3CCNCC3)cc(C3CCCCC3)nc2cc1OCCCN1CCCC1
6.00 to 6.30
9) COc1cc2c(NC3CCN(C)CC3)cc(-c3cc(C)oc3C)nc2cc1OCCCN1CCCC1
6.00 to 6.30
10) CCc1ccc(-c2cc(NC3CC4(CCN(C5CC5)CC4)C3)c3cc(OC)c(OCCCN4CCCC4)cc3n2)o1
6.00 to 6.30
11) COc1cc2c(NC3CCN(C)CC3)cc(-c3ccccc3)nc2cc1OCCCN1CCCC1
5.00 to 6.00
12) COc1cc2c(NC3CCN(C)CC3)cc(-c3ccoc3)nc2cc1OCCCN1CCCC1
5.00 to 6.00
13) COc1cc2c(NC3CC4(CCNCC4)C3)cc(-c3ccc(C)[nH]3)nc2cc1OCCCN1CCCC1 [Compound 4-02, hydrochloride]
5.00 to 6.00
14) COCCNc1cc(-c2ccc(C)o2)nc2cc(OCCCN3CCCC3)c(OC)cc12
5.00 to 6.00
15) COc1cc2c(NCC3CCN(C)CC3)cc(-c3ccc(C)[nH]3)nc2cc1OCCCN1CCCC1
> 7.00
16) COc1cc2c(NC3CCN(C)CC3)cc(C3CCOCC3)nc2cc1OCCCN1CCCC1
5.00 to 6.00
